Experimental system: JAK2 JH1 JH2 (human) (UniProt O60674)
Sequence (O60674 whole entry, looked up): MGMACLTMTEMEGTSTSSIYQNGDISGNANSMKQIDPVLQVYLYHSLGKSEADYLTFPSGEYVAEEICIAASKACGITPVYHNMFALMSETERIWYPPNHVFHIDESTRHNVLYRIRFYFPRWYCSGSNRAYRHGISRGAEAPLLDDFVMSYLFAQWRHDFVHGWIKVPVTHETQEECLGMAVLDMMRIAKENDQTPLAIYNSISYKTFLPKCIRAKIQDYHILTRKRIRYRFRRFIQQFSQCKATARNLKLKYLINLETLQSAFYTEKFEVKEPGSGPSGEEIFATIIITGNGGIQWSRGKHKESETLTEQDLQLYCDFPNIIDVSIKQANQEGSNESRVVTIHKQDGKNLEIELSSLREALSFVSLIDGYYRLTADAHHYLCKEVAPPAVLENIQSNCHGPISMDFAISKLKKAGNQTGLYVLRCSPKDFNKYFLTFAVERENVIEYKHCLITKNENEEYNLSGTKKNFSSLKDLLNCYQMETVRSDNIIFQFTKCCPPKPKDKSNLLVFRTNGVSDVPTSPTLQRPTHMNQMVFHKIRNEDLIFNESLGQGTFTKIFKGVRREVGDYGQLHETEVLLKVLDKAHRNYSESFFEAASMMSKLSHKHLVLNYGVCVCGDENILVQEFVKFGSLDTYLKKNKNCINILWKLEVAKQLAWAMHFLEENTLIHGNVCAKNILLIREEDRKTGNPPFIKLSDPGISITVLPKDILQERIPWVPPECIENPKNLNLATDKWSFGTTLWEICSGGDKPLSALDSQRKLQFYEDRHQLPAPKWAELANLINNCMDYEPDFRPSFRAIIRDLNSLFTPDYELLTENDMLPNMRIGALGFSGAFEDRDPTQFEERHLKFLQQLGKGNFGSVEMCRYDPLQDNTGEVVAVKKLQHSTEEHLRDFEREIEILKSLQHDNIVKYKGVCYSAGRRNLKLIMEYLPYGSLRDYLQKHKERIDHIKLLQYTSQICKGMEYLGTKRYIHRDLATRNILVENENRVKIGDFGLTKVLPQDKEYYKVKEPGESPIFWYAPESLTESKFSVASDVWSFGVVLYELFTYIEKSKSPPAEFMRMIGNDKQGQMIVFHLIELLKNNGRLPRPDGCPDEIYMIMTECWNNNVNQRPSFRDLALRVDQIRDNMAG
Protocol: radiometric filter-binding kinase assay, Kinase HotSpot
Condition description: compound 0.5 µM; ATP 10 µM
Measured parameter: residual activity (%)
# number only, unit % dropped from output

Cc1nc2cc3nc(-c4cccs4)cnc3cc2n1C; 106
COc1ccc(OC)c2c(=S)c3ccccc3[nH]c12; 96
CC(C)c1nn(-c2c(Cl)cccc2Cl)c2nc(Cc3ccc(OCCO)cc3)nc(O)c12; 98.3

Short answer for CN(C)C[C@H]1CCn2c(c(C3=C(c4cn(C)c5ccccc45)C(=O)NC3=O)c3ccccc32)C1 : residual activity was 98.6

====

Experimental system: PNCK (human) (UniProt Q6P2M8)
Sequence (Q6P2M8 whole entry, looked up): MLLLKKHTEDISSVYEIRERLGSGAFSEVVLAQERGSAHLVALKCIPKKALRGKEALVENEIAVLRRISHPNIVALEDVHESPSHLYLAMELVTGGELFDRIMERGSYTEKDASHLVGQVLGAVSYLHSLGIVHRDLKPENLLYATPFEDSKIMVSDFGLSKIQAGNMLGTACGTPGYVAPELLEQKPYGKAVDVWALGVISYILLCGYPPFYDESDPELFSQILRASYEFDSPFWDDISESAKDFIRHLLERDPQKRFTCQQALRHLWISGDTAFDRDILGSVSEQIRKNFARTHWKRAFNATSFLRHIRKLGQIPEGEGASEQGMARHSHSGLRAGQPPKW
Protocol: radiometric filter-binding kinase assay, Kinase HotSpot
Condition description: compound 0.5 µM; ATP 10 µM
Measured parameter: residual activity

Cc1nc2cc3nc(-c4cccs4)cnc3cc2n1C; 102%

Short answer for O=C1NC(=O)C(c2cn(CCCO)c3ncccc23)=C1c1cnccn1 : residual activity was 94.9%

Short answer for O=C(Nc1cccc(Nc2cc(Nc3cccc(C(F)(F)F)c3)ncn2)c1)C1CC1 : residual activity was 101%

Short answer for Nc1nnc2[nH]c3ccccc3nc1-2 : residual activity was 102%

Short answer for O=C(CCCc1ccc(-c2ccccc2F)cc1)Nc1ccc(O)cc1 : residual activity was 102%

Short answer for O=C(O)/C=C/c1cc(Br)c(Br)c(Br)c1Br : residual activity was 95.1%

Short answer for COc1ccc(OC)c2c(=S)c3ccccc3[nH]c12 : residual activity was 97.3%

Short answer for CC(C)c1nn(-c2c(Cl)cccc2Cl)c2nc(Cc3ccc(OCCO)cc3)nc(O)c12 : residual activity was 94.3%

Short answer for Cn1nc2c3c(cccc31)C(=O)c1ccccc1-2 : residual activity was 101%

====

Experimental system: KIT (human)
Protocol: radiometric filter-binding kinase assay, Kinase HotSpot
Condition description: compound 0.5 µM; ATP 10 µM
Measured residual activity, listed per entry.
# number only, unit % dropped from output

# annotated cases, reported residual activity shown
O=C1NC(=O)/C(=C\c2ccc3nccnc3c2)S1; 87.5
Cc1nc2cc3nc(-c4cccs4)cnc3cc2n1C; 40.4
COc1cc2ncnc(N3CCN(C(=O)Nc4ccc(Oc5ccccc5)cc4)CC3)c2cc1OC; 48.2
O=C(O)/C=C/c1cc(Br)c(Br)c(Br)c1Br; 89.2
CCn1cnc2c(Nc3cccc(Cl)c3)nc(N[C@@H]3CCCC[C@@H]3N)nc21; 101

As a next step, examine the compound that follows.
Short answer for O=C1Cc2c([nH]c3ccc(Br)cc23)-c2ccccc2N1 : residual activity was 90.3

====

Experimental system: CDK2 CCNA2 (human) (UniProt P24941+P20248)
Sequence (P20248 whole entry, looked up, other chains not shown): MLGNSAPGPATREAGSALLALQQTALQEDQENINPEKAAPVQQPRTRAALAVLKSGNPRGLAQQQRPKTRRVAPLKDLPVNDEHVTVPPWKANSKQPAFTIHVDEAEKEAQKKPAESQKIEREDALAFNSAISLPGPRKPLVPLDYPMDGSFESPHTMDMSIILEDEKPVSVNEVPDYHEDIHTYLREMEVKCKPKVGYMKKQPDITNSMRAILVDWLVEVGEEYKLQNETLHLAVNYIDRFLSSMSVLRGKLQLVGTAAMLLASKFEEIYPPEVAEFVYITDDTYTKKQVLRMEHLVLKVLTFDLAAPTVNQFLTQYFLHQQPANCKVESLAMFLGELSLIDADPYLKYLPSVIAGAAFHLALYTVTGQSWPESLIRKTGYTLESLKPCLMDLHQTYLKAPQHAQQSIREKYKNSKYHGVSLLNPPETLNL
Protocol: radiometric filter-binding kinase assay, Kinase HotSpot
Condition description: compound 0.5 µM; ATP 10 µM
Lab note: anything with residual activity below 80% is marked MET; values at 80% or higher are marked NOT MET.

Would you please look over these solved cases?
Nc1nnc2[nH]c3ccccc3nc1-2; NOT MET
O=C1Nc2ccccc2/C1=C1/Nc2ccccc2/C1=N\OCCC(O)CO (stereo not given); MET
COc1ccc(OC)c2c(=S)c3ccccc3[nH]c12; NOT MET

Would you kindly verify if residual activity of CN(C)C[C@H]1CCn2c(c(C3=C(c4cn(C)c5ccccc45)C(=O)NC3=O)c3ccccc32)C1 is strictly less than 80%?
MET

Would you kindly verify if residual activity of c1cc(-c2cnn3cc(-c4ccc(OCCN5CCCCC5)cc4)cnc23)ccn1 is strictly less than 80%?
NOT MET

====

Experimental system: AKT2 (human) (UniProt P31751)
Sequence (P31751 whole entry, looked up): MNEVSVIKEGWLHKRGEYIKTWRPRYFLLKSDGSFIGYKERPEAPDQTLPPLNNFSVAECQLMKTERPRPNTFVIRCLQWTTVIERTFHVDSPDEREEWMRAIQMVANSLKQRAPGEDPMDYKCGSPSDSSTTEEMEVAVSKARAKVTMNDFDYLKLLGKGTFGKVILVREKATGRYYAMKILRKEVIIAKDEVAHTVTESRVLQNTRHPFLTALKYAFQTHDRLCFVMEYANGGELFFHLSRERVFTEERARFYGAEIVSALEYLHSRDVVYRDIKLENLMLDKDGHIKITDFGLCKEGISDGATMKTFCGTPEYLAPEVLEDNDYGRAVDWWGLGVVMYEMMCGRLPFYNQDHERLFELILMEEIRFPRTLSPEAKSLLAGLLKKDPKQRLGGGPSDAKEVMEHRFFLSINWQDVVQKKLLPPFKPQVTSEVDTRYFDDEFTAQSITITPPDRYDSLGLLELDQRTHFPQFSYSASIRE
Protocol: radiometric filter-binding kinase assay, Kinase HotSpot
Condition description: compound 0.5 µM; ATP 10 µM
Measured residual activity, listed per entry.
Returns: string containing the number followed by the unit.

Cc1nc2cc3nc(-c4cccs4)cnc3cc2n1C; 91.5%
O=C1Cc2c([nH]c3ccc(Br)cc23)-c2ccccc2N1; 104%
O=C1NC(=O)C(c2c[nH]c3ccccc23)=C1c1c[nH]c2ccccc12; 102%

Short answer for O=C1Nc2ccccc2/C1=C1\Nc2ccccc2\C1=N/O : residual activity was 92%

Short answer for CC(C)[C@H](CO)Nc1nc(Nc2cc(N)cc(Cl)c2)c2ncn(C(C)C)c2n1 : residual activity was 100%

Short answer for Cn1sc(=O)n(Cc2ccccc2)c1=O : residual activity was 99.2%

Short answer for O=C(CCCc1ccc(-c2ccccc2F)cc1)Nc1ccc(O)cc1 : residual activity was 101%

Short answer for O=C1Nc2ccccc2/C1=C1/Nc2ccccc2/C1=N\OCCC(O)CO (configuration not stated) : residual activity was 90.1%

Short answer for COc1ccc(OC)c2c(=S)c3ccccc3[nH]c12 : residual activity was 94.6%

Short answer for Oc1ccc(Nc2nc(-c3ccc(Cl)cc3)cs2)cc1 : residual activity was 96.4%

Short answer for COc1ccc(CNC(=O)Nc2ncc([N+](=O)[O-])s2)cc1 : residual activity was 103%

Short answer for CCN(CC)CCCCN1c2ccccc2Oc2ccc(Cl)cc21 : residual activity was 101%

====

Experimental system: CDK1 CCNB1 (human) (UniProt P06493+P14635)
Sequence (P06493 whole entry, looked up): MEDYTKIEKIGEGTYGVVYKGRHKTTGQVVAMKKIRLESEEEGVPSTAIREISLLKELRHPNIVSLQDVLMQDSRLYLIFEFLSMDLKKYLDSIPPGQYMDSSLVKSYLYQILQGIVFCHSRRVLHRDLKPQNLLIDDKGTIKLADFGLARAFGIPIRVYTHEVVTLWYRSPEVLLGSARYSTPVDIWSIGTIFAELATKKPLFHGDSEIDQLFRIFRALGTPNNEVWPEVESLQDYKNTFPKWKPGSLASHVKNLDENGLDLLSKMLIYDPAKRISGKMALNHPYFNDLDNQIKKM
Sequence (P14635 whole entry, looked up): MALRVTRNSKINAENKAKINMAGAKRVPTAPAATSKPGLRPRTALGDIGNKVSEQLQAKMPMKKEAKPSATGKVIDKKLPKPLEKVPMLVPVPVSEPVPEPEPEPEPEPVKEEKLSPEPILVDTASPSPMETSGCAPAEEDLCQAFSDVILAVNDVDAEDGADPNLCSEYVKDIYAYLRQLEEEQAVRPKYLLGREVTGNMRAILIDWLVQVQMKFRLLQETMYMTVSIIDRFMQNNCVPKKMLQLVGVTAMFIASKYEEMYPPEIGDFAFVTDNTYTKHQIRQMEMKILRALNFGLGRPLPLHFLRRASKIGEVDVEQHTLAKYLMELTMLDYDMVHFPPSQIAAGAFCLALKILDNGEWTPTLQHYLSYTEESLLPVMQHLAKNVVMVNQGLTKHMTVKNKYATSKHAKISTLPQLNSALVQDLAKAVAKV
Protocol: radiometric filter-binding kinase assay, Kinase HotSpot
Condition description: compound 0.5 µM; ATP 10 µM
Binary classification by residual activity, with 80% as an inclusive lower bound for t; all other cases are f.

Would you please look over these solved cases?
Cn1sc(=O)n(Cc2ccccc2)c1=O; t
O=C1Nc2ccccc2/C1=C1/Nc2ccccc2/C1=N\OCCC(O)CO (stereo not given); f
Nc1nccc(-c2c(-c3ccc(F)cc3)ncn2C2CCNCC2)n1; t

Okay, next one:
Hi team, for CC(C)c1nn(-c2c(Cl)cccc2Cl)c2nc(Cc3ccc(OCCO)cc3)nc(O)c12 , is the recorded residual activity at or above 80%?
f

====

Experimental system: UniProtKB P22612
Sequence (P22612 whole entry, looked up): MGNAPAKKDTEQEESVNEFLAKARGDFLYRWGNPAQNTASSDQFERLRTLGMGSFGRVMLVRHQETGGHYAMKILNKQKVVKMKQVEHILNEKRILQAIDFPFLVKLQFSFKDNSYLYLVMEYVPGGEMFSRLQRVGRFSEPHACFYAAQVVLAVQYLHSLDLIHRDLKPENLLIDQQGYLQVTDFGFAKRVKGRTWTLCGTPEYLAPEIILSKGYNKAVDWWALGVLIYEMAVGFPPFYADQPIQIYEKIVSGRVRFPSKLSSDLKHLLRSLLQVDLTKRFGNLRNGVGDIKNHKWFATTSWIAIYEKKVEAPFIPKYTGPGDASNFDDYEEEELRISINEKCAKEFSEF
Protocol: radiometric filter-binding kinase assay, Kinase HotSpot
Condition description: compound 0.5 µM; ATP 10 µM
Measured residual activity, listed per entry.
# number only, unit % dropped from output

# annotated cases, reported residual activity shown
O=C1NC(=O)/C(=C\c2ccc3nccnc3c2)S1; 99.6
Nc1nccc(-c2c(-c3ccc(F)cc3)ncn2C2CCNCC2)n1; 105

As a next step, examine the molecule that follows.
Short answer for O=C(CCCc1ccc(-c2ccccc2F)cc1)Nc1ccc(O)cc1 : residual activity was 93.5

====

Experimental system: TGFBR1 (human) (UniProt P36897)
Sequence (P36897 whole entry, looked up): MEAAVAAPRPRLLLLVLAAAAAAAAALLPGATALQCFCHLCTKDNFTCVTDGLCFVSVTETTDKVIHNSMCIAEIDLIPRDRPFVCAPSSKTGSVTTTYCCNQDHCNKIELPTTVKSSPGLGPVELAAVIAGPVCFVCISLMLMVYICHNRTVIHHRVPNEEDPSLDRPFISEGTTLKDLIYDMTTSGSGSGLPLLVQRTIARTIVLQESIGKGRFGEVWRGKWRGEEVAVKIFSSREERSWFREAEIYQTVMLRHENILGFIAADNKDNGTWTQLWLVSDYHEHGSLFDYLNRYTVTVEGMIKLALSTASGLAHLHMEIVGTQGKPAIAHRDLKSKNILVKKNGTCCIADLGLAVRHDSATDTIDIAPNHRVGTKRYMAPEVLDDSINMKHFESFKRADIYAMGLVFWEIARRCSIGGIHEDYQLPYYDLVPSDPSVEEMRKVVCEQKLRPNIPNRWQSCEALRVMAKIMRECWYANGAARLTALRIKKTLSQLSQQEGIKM
Protocol: radiometric filter-binding kinase assay, Kinase HotSpot
Condition description: compound 0.5 µM; ATP 10 µM
Measured residual activity, listed per entry.
# number only, unit % dropped from output

CC(C)[C@H](CO)Nc1nc(Nc2cc(N)cc(Cl)c2)c2ncn(C(C)C)c2n1; 103

Short answer for O=C(O)/C=C/c1cc(Br)c(Br)c(Br)c1Br : residual activity was 90.8

Short answer for O=C1NC(=O)C(c2cn(CCCO)c3ncccc23)=C1c1cnccn1 : residual activity was 98.5

====

Experimental system: FES (human) (UniProt P07332)
Sequence (P07332 whole entry, looked up): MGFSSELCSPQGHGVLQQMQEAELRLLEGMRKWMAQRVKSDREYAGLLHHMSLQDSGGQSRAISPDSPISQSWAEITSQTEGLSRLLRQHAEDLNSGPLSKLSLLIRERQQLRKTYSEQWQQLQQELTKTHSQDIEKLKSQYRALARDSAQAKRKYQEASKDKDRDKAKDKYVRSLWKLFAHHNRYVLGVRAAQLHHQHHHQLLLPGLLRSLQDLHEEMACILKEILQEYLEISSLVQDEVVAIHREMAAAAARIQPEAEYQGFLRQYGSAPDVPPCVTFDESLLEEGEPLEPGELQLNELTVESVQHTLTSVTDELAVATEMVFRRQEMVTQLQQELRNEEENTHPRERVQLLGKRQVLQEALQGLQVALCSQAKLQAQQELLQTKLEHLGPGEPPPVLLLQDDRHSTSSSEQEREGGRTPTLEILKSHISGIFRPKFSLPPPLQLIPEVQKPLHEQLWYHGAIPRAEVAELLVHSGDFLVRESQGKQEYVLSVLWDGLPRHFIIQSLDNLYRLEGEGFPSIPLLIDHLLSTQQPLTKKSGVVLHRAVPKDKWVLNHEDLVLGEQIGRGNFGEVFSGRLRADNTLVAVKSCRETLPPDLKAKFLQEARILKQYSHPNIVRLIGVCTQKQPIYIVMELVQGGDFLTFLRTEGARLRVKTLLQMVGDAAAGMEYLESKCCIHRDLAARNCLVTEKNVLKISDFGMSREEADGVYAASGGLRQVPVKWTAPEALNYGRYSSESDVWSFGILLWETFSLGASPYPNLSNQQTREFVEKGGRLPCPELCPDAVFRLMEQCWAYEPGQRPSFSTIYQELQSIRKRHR
Protocol: radiometric filter-binding kinase assay, Kinase HotSpot
Condition description: compound 0.5 µM; ATP 10 µM
Measured residual activity, listed per entry.
# number only, unit % dropped from output

# annotated cases, reported residual activity shown
CC(=O)O/N=C1\C(=C2\C(=O)Nc3cc(Br)ccc32)Nc2ccccc21; 115
Oc1ccc(Nc2nc(-c3ccc(Cl)cc3)cs2)cc1; 103

Short answer for O=C1Nc2ccccc2/C1=C1\Nc2ccccc2\C1=N/O : residual activity was 92.4

Short answer for Cc1nc2cc3nc(-c4cccs4)cnc3cc2n1C : residual activity was 106

Short answer for Nc1nnc2[nH]c3ccccc3nc1-2 : residual activity was 96.8

Short answer for O=C1Nc2ccccc2/C1=C1/Nc2ccccc2/C1=N\OCCC(O)CO (configuration not stated) : residual activity was 81.7

Short answer for O=C1Cc2c([nH]c3ccc(Br)cc23)-c2ccccc2N1 : residual activity was 87.8

Short answer for Cn1nc2c3c(cccc31)C(=O)c1ccccc1-2 : residual activity was 94.4

Short answer for CN([C@@H](Cc1ccc(OS(=O)(=O)c2cccc3cnccc23)cc1)C(=O)N1CCN(c2ccccc2)CC1)S(=O)(=O)c1cccc2cnccc12 : residual activity was 97.7

Short answer for Nc1nccc(-c2c(-c3ccc(F)cc3)ncn2C2CCNCC2)n1 : residual activity was 103

Short answer for O=C(O)/C=C/c1cc(Br)c(Br)c(Br)c1Br : residual activity was 88.8

Short answer for O=C1NC(=O)C(c2c[nH]c3ccccc23)=C1c1c[nH]c2ccccc12 : residual activity was 99.8

====

Experimental system: MAPK10 (human)
Protocol: radiometric filter-binding kinase assay, Kinase HotSpot
Condition description: compound 0.5 µM; ATP 10 µM
Measured parameter: residual activity (%)
# number only, unit % dropped from output

# annotated cases, reported residual activity shown
O=C1NC(=O)C(c2cn(CCCO)c3ncccc23)=C1c1cnccn1; 88
Nc1nccc(-c2c(-c3ccc(F)cc3)ncn2C2CCNCC2)n1; 105
CC(C)c1nn(-c2c(Cl)cccc2Cl)c2nc(Cc3ccc(OCCO)cc3)nc(O)c12; 109
COc1cc2ncc(-c3ccccc3)nc2cc1OC; 90.3

The recorded residual activity with MAPK10 (human) for O=C1NC(=O)/C(=C\c2ccc3nccnc3c2)S1 was 96

The recorded residual activity with MAPK10 (human) for CC(C)[C@H](CO)Nc1nc(Nc2cc(N)cc(Cl)c2)c2ncn(C(C)C)c2n1 was 94.6

The recorded residual activity with MAPK10 (human) for Cc1nc2cc3nc(-c4cccs4)cnc3cc2n1C was 96.3

The recorded residual activity with MAPK10 (human) for CN(C)C[C@H]1CCn2c(c(C3=C(c4cn(C)c5ccccc45)C(=O)NC3=O)c3ccccc32)C1 was 101
